Tested on: ACHN renal
procedure text: NCI tumour cell line growth inhibition, 48 h
# TGI per record follows

See these solved cases before continuing.
O=C(O)c1ccccc1NC(=O)C1CCCCC1
> 100 µM
CCC(Oc1ccc(OC)c2ccccc(=O)c12)C(=O)O (stereo unspecified)
> 100 µM

Fill in the blank: the reported TGI of COc1cc(C2C(Cl)C(=O)N2NC(=O)c2ccc(NC(C)=O)cc2OC)ccc1O (stereo unspecified) is ____.
50.2 µM

Fill in the blank: the reported TGI of CCOC(=O)C(=O)C(CCC(=O)c1ccc2ccccc2c1O)C(=O)OCC (stereo unspecified) is ____.
> 100 µM

Fill in the blank: the reported TGI of CCCC[C@H]1CCN2C[C@@H](O)[C@@H](O)[C@H]2[C@@H]1O is ____.
> 100 µM

Fill in the blank: the reported TGI of COc1ccc(CCc2nccn2C)cc1OC is ____.
> 100 µM

Fill in the blank: the reported TGI of Cc1c(C)c(S(=O)(=O)N(CCCCCON)OCCCN)c(C)c2c1OC(C)(C)CC2 is ____.
30 µM

Fill in the blank: the reported TGI of CN(C)CCN(C(=Nc1ccccc1)N1CCCC1)c1ccccc1 is ____.
> 100 µM
